biological target: Apolipoprotein B-100 (Homo sapiens); experiment: Inhibition of apolipoprotein B (apoB) secreted by human hepatoma cells (Hep G2) […]
Sequence (P04114 whole entry C1422Y): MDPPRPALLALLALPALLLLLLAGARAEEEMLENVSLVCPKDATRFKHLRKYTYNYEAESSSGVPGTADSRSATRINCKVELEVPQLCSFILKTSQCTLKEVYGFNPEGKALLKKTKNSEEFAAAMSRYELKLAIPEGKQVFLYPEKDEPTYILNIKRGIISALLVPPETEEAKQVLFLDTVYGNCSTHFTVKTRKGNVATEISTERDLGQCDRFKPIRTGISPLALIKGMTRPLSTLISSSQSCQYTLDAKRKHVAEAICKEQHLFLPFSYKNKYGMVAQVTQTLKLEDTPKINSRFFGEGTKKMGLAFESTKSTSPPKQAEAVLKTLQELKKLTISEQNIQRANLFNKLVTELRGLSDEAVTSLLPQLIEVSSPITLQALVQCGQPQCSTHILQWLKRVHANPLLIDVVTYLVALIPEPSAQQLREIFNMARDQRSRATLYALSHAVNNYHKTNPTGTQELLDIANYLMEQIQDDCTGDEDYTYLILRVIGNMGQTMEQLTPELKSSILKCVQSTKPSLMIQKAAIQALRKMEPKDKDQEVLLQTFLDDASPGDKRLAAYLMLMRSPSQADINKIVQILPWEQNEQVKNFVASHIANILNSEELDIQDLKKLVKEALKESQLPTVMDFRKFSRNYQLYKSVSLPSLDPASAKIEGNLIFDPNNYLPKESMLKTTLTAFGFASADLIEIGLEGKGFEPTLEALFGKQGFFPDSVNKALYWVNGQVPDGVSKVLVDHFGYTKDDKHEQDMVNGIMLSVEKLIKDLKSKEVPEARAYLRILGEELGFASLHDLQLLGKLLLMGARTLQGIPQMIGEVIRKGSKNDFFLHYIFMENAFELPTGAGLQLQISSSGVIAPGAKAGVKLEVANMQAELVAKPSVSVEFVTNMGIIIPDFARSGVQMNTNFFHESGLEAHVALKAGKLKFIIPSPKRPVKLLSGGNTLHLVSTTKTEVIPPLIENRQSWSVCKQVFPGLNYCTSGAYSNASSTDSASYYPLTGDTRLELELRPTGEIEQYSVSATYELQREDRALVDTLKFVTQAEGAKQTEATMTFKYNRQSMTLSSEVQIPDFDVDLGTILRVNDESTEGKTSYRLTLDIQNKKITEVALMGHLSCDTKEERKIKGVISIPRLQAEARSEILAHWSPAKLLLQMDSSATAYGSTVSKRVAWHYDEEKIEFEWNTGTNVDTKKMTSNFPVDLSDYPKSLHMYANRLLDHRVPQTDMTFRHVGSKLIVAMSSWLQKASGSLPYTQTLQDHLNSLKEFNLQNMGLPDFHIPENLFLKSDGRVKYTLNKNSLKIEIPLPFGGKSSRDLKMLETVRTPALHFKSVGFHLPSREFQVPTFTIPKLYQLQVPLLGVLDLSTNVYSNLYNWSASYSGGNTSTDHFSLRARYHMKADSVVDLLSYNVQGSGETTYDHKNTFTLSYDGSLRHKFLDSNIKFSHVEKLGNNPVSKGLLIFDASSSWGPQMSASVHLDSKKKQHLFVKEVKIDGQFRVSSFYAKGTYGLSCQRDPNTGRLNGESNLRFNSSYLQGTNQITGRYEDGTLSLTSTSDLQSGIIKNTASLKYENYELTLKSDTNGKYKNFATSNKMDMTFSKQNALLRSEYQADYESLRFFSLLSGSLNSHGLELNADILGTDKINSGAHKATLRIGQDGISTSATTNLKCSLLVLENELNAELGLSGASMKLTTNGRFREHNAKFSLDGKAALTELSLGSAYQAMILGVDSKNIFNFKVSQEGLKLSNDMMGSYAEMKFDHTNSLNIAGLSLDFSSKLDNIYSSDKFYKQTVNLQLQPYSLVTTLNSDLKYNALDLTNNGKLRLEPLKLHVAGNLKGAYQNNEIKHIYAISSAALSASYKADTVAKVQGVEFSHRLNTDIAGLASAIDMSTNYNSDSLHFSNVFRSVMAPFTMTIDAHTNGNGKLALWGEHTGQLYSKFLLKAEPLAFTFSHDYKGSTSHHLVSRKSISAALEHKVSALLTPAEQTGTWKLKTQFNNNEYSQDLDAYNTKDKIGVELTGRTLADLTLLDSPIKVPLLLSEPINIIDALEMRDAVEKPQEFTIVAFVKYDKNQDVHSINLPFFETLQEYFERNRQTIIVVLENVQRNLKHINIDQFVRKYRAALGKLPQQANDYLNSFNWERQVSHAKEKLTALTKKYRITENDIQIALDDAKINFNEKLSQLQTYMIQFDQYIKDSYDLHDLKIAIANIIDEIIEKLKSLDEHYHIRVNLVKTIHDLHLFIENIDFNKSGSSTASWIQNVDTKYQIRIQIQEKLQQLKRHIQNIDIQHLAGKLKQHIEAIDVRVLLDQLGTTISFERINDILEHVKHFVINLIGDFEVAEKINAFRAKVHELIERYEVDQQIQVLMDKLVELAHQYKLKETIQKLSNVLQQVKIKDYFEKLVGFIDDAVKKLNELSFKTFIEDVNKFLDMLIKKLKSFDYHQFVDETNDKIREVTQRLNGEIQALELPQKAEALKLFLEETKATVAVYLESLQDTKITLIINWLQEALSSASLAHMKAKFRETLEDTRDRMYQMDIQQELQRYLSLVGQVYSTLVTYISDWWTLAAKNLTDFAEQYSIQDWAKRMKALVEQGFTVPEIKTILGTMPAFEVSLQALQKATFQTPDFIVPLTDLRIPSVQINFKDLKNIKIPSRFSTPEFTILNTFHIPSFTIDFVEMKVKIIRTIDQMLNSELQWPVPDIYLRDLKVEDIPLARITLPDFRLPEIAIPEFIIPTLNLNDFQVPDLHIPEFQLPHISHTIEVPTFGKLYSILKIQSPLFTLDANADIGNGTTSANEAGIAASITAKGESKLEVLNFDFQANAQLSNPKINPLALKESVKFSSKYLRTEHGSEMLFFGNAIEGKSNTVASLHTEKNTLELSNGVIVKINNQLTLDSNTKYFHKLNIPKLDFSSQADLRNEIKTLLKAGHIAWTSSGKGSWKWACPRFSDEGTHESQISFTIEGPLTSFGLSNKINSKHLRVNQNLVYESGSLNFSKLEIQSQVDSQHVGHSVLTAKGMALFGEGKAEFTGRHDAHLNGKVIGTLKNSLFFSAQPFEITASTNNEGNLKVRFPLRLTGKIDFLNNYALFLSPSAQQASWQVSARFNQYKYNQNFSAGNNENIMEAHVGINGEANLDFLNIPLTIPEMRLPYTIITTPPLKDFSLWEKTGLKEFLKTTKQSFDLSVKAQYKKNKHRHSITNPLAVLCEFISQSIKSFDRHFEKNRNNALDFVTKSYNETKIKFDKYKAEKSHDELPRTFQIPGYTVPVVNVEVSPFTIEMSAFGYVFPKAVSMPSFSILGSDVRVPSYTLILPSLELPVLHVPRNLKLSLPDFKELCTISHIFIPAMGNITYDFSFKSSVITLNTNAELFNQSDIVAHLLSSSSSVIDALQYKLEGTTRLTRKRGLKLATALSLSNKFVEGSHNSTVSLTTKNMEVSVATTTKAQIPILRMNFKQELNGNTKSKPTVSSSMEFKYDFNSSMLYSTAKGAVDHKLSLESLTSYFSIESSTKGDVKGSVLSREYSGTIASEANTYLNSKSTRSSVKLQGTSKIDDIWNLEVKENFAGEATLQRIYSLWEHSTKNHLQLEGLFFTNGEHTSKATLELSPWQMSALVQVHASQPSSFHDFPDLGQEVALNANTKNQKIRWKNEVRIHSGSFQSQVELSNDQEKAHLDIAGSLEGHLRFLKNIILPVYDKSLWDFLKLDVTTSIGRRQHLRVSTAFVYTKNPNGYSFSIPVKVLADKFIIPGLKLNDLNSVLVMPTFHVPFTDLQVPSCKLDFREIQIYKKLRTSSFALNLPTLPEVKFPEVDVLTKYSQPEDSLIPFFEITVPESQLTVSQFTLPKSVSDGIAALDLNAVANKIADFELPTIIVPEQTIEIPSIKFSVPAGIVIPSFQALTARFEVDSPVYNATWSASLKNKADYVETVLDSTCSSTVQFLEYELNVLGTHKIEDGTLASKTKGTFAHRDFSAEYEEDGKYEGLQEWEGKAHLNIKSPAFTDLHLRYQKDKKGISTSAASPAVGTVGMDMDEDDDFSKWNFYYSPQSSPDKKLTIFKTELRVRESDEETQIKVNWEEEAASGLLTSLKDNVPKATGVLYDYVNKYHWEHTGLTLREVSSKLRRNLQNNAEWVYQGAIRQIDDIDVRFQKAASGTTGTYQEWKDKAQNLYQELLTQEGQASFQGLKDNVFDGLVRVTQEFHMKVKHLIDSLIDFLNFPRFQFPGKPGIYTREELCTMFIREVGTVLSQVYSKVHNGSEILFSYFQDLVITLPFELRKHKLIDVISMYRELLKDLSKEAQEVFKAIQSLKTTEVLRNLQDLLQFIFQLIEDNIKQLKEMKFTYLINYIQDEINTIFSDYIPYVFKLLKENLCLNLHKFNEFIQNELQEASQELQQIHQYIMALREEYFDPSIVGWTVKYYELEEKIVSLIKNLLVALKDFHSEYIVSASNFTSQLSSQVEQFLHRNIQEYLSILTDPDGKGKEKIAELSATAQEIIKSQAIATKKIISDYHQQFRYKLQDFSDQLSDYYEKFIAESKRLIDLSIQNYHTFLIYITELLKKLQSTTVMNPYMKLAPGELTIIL
measurementKind: log10(IC50) (log10 of the value in nM)

>>> reported("COC(=O)NCCC1Cc2ccc(NC(=O)c3cccc(C)c3-c3ccc(C(F)(F)F)cc3)cc2C1 (stereo unspecified)")
1.00
>>> reported("COC(=O)N[C@@H]1Cc2ccc(NC(=O)c3ccccc3-c3ccc(C(F)(F)F)cc3)cc2C1")
0.72
>>> reported("COC(=O)NCC1Cc2ccc(NC(=O)c3cccc(C)c3-c3ccc(C(F)(F)F)cc3)cc2C1 (stereo unspecified)")
0.61
>>> reported("O=C(Nc1ccc2c(c1)CC(NS(=O)(=O)c1ccccc1)C2)c1ccccc1-c1ccc(C(F)(F)F)cc1 (stereo unspecified)")
0.11
>>> reported("Cc1cccc(C(=O)Nc2ccc3c(c2)C[C@H](NS(=O)(=O)c2cccs2)C3)c1-c1ccc(C(F)(F)F)cc1")
-0.05
>>> reported("O=C(Nc1ccc2c(c1)C[C@@H](NS(=O)(=O)c1ccccc1)C2)c1ccccc1-c1ccc(C(F)(F)F)cc1")
1.62
>>> reported("COC(=O)N[C@H]1Cc2ccc(NC(=O)c3cc(C)cc(C)c3-c3ccc(C(F)(F)F)cc3)cc2C1")
0.04
>>> reported("Cc1cccc(C(=O)Nc2ccc3c(c2)CC(CNS(C)(=O)=O)C3)c1-c1ccc(C(F)(F)F)cc1 (stereo unspecified)")
0.81
>>> reported("COC(=O)NCC1Cc2ccc(NC(=O)c3cc(C)cc(C)c3-c3ccc(C(F)(F)F)cc3)cc2C1 (stereo unspecified)")
0.34
>>> reported("Cc1cccc(C(=O)Nc2ccc3c(c2)CCC(NS(=O)(=O)c2cccs2)CC3)c1-c1ccc(C(F)(F)F)cc1 (stereo unspecified)")
0.20
>>> reported("Cc1ccc(-c2c(C)cccc2C(=O)Nc2ccc3c(c2)CC(NS(=O)(=O)c2ccccc2)C3)cc1 (stereo unspecified)")
0.40
>>> reported("Cc1cccc(C(=O)Nc2ccc3c(c2)CCC(NS(C)(=O)=O)CC3)c1-c1ccc(Cl)cc1 (stereo unspecified)")
0.70
>>> reported("COC(=O)N[C@@H]1Cc2ccc(NC(=O)c3cc(C)cc(C)c3-c3ccc(C(F)(F)F)cc3)cc2C1")
0.40
>>> reported("O=C(NC1Cc2ccc(NC(=O)c3ccccc3-c3ccc(C(F)(F)F)cc3)cc2C1)c1ccccc1 (stereo unspecified)")
2.43
>>> reported("COc1cccc(C(=O)Nc2ccc3c(c2)CC(NS(=O)(=O)c2ccccc2)C3)c1-c1ccc(Cl)cc1 (stereo unspecified)")
0.30
>>> reported("Cc1cc(C)c(-c2ccc(C(F)(F)F)cc2)c(C(=O)Nc2ccc3c(c2)C[C@@H](NS(=O)(=O)c2cccs2)C3)c1")
0.41
>>> reported("COC(=O)NC1CCc2ccc(NC(=O)c3cccc(C)c3-c3ccc(Cl)cc3)cc2CC1 (stereo unspecified)")
0.30
>>> reported("Cc1cccc(C(=O)Nc2ccc3c(c2)CC(NS(C)(=O)=O)C3)c1-c1ccc(F)cc1 (stereo unspecified)")
0.92
>>> reported("COC(=O)N[C@H]1Cc2ccc(NC(=O)c3cccc(C(F)(F)F)c3-c3ccc(C(F)(F)F)cc3)cc2C1")
0.26
>>> reported("COC(=O)NCC1Cc2ccc(NC(=O)c3cccc(C)c3-c3ccc(Cl)cc3)cc2C1 (stereo unspecified)")
0.94
>>> reported("Cc1cccc(C(=O)Nc2ccc3c(c2)CC(NS(=O)(=O)c2cccs2)C3)c1-c1ccc(Cl)cc1 (stereo unspecified)")
0.48
>>> reported("O=C(Nc1ccc2c(c1)CC(NCc1ccccc1)C2)c1ccccc1-c1ccc(C(F)(F)F)cc1 (stereo unspecified)")
2.53
>>> reported("COC(=O)NC1CCc2ccc(NC(=O)c3cc(C)cc(C)c3-c3ccc(C(F)(F)F)cc3)cc2CC1 (stereo unspecified)")
0.38
>>> reported("COC(=O)N[C@H]1Cc2ccc(NC(=O)c3cc(C)ccc3-c3ccc(C(F)(F)F)cc3)cc2C1")
0.34
>>> reported("Cc1cccc(C(=O)Nc2ccc3c(c2)CC(CNS(C)(=O)=O)C3)c1-c1ccc(Cl)cc1 (stereo unspecified)")
1.20
>>> reported("Cc1cccc(C(=O)Nc2ccc3c(c2)CC(NS(=O)(=O)c2ccccc2)C3)c1-c1ccc(Cl)cc1 (stereo unspecified)")
0.38
>>> reported("Cc1cccc(C(=O)Nc2ccc3c(c2)CC(NS(=O)(=O)c2ccccc2)C3)c1-c1ccc(C#N)cc1 (stereo unspecified)")
0.74
>>> reported("COC(=O)N1CCN([C@@H]2Cc3ccc(NC(=O)c4cccc(C)c4-c4ccc(C(F)(F)F)cc4)cc3C2)CC1")
1.63
>>> reported("Cc1cccc(C(=O)Nc2ccc3c(c2)C[C@@H](NCc2ccccn2)C3)c1-c1ccc(C(F)(F)F)cc1")
0.23
>>> reported("Cc1cccc(C(=O)Nc2ccc3c(c2)CC(NS(C)(=O)=O)C3)c1-c1ccc(Cl)cc1 (stereo unspecified)")
0.82
>>> reported("O=C(Nc1ccc2c(c1)CC(NS(=O)(=O)c1ccccc1)C2)c1ccccc1-c1ccccc1 (stereo unspecified)")
1.08
>>> reported("Cc1cccc(C(=O)Nc2ccc3c(c2)CC(NS(=O)(=O)c2ccccc2)C3)c1-c1ccc(F)cc1 (stereo unspecified)")
0.08
>>> reported("Cc1cc(C)c(-c2ccc(C(F)(F)F)cc2)c(C(=O)Nc2ccc3c(c2)C[C@H](NS(=O)(=O)c2cccs2)C3)c1")
0.00
>>> reported("COC(=O)N1CCN([C@H]2Cc3ccc(NC(=O)c4cccc(C)c4-c4ccc(C(F)(F)F)cc4)cc3C2)CC1")
0.26
>>> reported("Cc1cccc(C(=O)Nc2ccc3c(c2)CC(NS(=O)(=O)c2cccs2)C3)c1-c1ccc(F)cc1 (stereo unspecified)")
0.15
>>> reported("CN(C)C(=O)NC1Cc2ccc(NC(=O)c3ccccc3-c3ccc(C(F)(F)F)cc3)cc2C1 (stereo unspecified)")
2.08
